List of Emax values.
Biological target: UniProt:P34972
Sequence (P34972 whole entry): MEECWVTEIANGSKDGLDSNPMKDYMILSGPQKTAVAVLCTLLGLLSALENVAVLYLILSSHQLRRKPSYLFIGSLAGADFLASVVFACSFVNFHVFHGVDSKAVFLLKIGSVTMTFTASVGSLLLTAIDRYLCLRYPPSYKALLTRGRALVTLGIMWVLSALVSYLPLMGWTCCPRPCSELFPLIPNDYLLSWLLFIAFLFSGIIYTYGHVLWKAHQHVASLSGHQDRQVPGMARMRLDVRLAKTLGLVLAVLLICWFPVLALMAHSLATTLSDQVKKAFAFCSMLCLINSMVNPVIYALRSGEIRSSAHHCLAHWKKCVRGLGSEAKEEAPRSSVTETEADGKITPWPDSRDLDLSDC
Experiment: Agonist activity at human CB2 receptor expressed in HEK293 cell membranes assessed as inhibition of forskolin-stimulated cAMP accumulation after 60 mins by HTRF assay
Format: functional, cell-based
readout_name: Emax (%)

>>> print(df.to_string())
                              sample_smiles  numeric_readout
0  CCCCCCC(C)(C)c1cc(OC)c2c(c1)OC(C)(C)c1cnoc1-2              101
1  CCCCCCC(C)(C)c1cc(OCCO)c2c(c1)OC(C)(C)c1cn[nH]c1-2               95
2  CCCC(C)(C)c1ccc2c(c1)OC(C)(C)[C@@H]1CC=C(C)C[C@@H]21               98
3  CCCCCCC(C)(C)c1cc2c(c3c1CCCO3)-c1nn(CC)cc1C(C)(C)O2               98
4  CCCCCCC(C)(C)c1cc(O)c2c(c1)OC(C)(C)c1cnoc1-2               98
5  CCCCCCC(C)(C)c1cc(OCCCO)c2c(c1)OC(C)(C)c1cnoc1-2               91
